# experiment_notes: yeast display, Sf9 membrane polyspecificity reagent, FACS + sequencing; frameworks hold sequencing errors
readout_name: polyreactivity (PSR sort gate)

{"columns": ["sequence_text", "readout_name", "observed_value"],
 "data": [
  ["QVQLVESGGGLVQAGGSLRLSCAASGSIFSRNAMGWYRQAPGKERELVAAISYSSGSTYYADSVKGRFTLSRDNAKNTVYLQMNSLKPEDTAVYYCAADTTKLQGAEVDFWGQGTQVTVSS", "polyreactivity (PSR sort gate)", "low polyreactivity"],
  ["QVQLVESGGGLVQAGGSLRLSCAASGIIFYRYAMGWYRQAPGKERELVARITSSTGSTYYADSVKGRFTISRDNAKNTVYLQMNSLKPEDTAVYYCNARRQRNKSYNYWGQGTQVTVSS", "polyreactivity (PSR sort gate)", "high polyreactivity"],
  ["QVQLVESGGGLVQAGGSLRLSCAASGRIFLYYAMGWYRQAPGKERELVAASTYTDGSTYYADSVKGRFTISRDNAKNTVYLQMNSLKPEDTAVYYCAAEFYYYDYWGQGTQVTVSS", "polyreactivity (PSR sort gate)", "low polyreactivity"],
  ["QVQLVESGGGLVQEGGSLRLSCAASGYIFYEYAMGWYRQAPGKERELVAAISYSGGSTYYADSVKGRFTISRDNAKNTVYLQMNSLKPEDTAVYYCAAVGSVRYREGYDYWGQGSQVTVSS", "polyreactivity (PSR sort gate)", "high polyreactivity"]
]}

May I ask what polyreactivity (PSR sort gate) has been recorded for `QVQLVESGGGLVQAGGSLRLSCAASGRIFSRNAMGWYRQAPGKERELVAAITRRGGSTYYADSVKGRFTISRDNAKNTVYLQMNSLKPEDTAVYYCATVTYSGSVDYDYWGQGTQVTVSS` ? high polyreactivity

May I ask what polyreactivity (PSR sort gate) has been recorded for `QVQLVESGGGLVQAGGSLRLSCAASGITFAKYAMGWYRQAPGKERELVAAISTSGGSTYYADSVKGRFTISRDNAKNTVYLQMNSLKPEDTAVYYCNVDTYIWYYLRYYNYWGQGTQVTVSS` ? high polyreactivity

###

# experiment_notes: yeast display, Sf9 membrane polyspecificity reagent, FACS + sequencing; frameworks hold sequencing errors

{"columns": ["sequence_text", "polyreactivity (PSR sort gate)"],
 "data": [
  ["QVQLVESGGGLVQARGSLRLSCAASGSTVGYNAMGWYRQAPGKERELVAAISGNGGSTYADSVKGRFTISRDNAKNTVYLQMNSLKPEDTAVYYCAAVQYGYGLASDSIFDYWGQGTQVTVSS", "high polyreactivity"],
  ["QVQLVESGGGLVQAGGSLRLSCAASGLTCSRNAMGWYRQAPGKERELVAAINWSGGSTYYADSVKGRFTISRDNAKNTVYLQMNSLKPEDTAVYYCAAEYAPSPYDWGYEYWGQGTQVTLSS", "high polyreactivity"]
]}

###

# experiment_notes: yeast display, Sf9 membrane polyspecificity reagent, FACS + sequencing; frameworks hold sequencing errors

{"columns": ["sequence_text", "polyreactivity (PSR sort gate)"],
 "data": [
  ["QVQLVESGGGLVQSGGSLRLSCAASGITLRRNAMVWYRQAPGKERELVASISSRGGTTYYADSVKGRFTISRDNAKNTDYLQMISQKPEDTAVYYCAAYRVQRLANTGYDYWGQGTQVTVSS", "high polyreactivity"],
  ["QVQLVESGGGLVQAGGSLRLSCAASGSTFGGNAMGWYRQAPGKERELVAAISRSGTTTYYADSVKGRFTISRDNAKNTVYLQMNSLKPEDTAVYYCAADYVRSQYDYWGQGTQVTVSS", "high polyreactivity"],
  ["QVQLVESGGGLVQAGGSLRLSCAASGSIFTKYAMGWYRQAPGKERELVAAINARGGSTYYADSVKGRFTISRDNAKNTVYLQMNSLKPEDTAVYYCAARYGVGRADYYWGQGTQVTVSS", "high polyreactivity"]
]}

###

# experiment_notes: yeast display, Sf9 membrane polyspecificity reagent, FACS + sequencing; frameworks hold sequencing errors
readout_name: polyreactivity (PSR sort gate)

// below: answered sequences
{"columns": ["sequence_text", "polyreactivity (PSR sort gate)"],
 "data": [
  ["QVQLVESGGGLVQARGSLRLSCAASGRTFGPYAMGWYRQAPGKERELVAAISSSEGSTYYADSVKGRFTISRDIAKYSVYLQMNSMKPEDTAVYYCNARYYLWSTTRWYGYDYWGQGTQVTVSS", "high polyreactivity"],
  ["QVQLVESGGGLVQAGGSLRLSCAASGSIFERYAMGWYRQAPGKERELVAAITWTGGSTYYADSVKGRFTISRDNAQNTVYLQMNSLKPEDTAVYYCAADYLYPLWGWYDYWGQGTQVTVSS", "low polyreactivity"],
  ["QVQHVESGGGLVQAGGSLRLSCAASGRTFHWYAMGWYRQAPGKERELVAAIRYSAGSTYYADSVKGRFTISRDNAKNTVYLQMNSLKPEDTAVYYCAARPPYTDSSPGERTYDYWGQGTQVTVSS", "low polyreactivity"],
  ["QVQLVESGGGLVQAGGSLRLSCAASGSTFSVYTMGWYRQAPGKERELVAAITSGGTYYADSVKGRFTISRDNAKNTVYLQMNSLKPEDTAVYYCAADVLSVGKHYDYWGQCTQVTVSS", "low polyreactivity"],
  ["QVQLVESGGGLVQAGGSLRLSCAASGFIISPYAMGWYRQAPGKERELVAAISWSGVSTYYADSVKGRFTISRDNAKNTVYLQMNSLKPEDTAVYYCATYRPVYYWGQGTQVTVSS", "high polyreactivity"]
]}

May I ask what polyreactivity (PSR sort gate) has been recorded for `QVQLVESGGGLVQAGGSLRLSCAASGRIFSRYAMGWYRQAPGKERELVAAINKSGGSTYYADSVKGRFTISRDNAKNTVYLQMNSLKPEDTAVYYCNAVYYYGRRRYGYWGQGTQVTVSS` ? high polyreactivity

May I ask what polyreactivity (PSR sort gate) has been recorded for `QVQLVESGGGLVQAGGSLRLSCAASGSTFRKNAMGWYRQAPGKERELVASISISGGRTNYADSVKGRFTISRDNAKNTVYLQMNSLKPEDTAVYYCAAGYPWYQLPRPLEYYYWGQGTQVTVSS` ? high polyreactivity

May I ask what polyreactivity (PSR sort gate) has been recorded for `QVQLVESGGGLVQAGGSLRLTCAASGNTFVSNAMGWYRQAPGKERELVAAIDSGGSTNYADSVKGRFTISRDNAKNTVYLQMNSLKPEDTAVYYCNRTSVYYYYWGQGTQVTVSS` ? low polyreactivity

May I ask what polyreactivity (PSR sort gate) has been recorded for `PVQLVESGGGLGQAGGSLRLSCAASGLTFGRYAMGWYRQAPGKERELVAAITRSGGRTYYADSVKGRFTISRDNAKNTVYLQMNSLKPEDTAVYYCNTRSHLGAPGDPDDYWGQGTQVTVTS` ? high polyreactivity

May I ask what polyreactivity (PSR sort gate) has been recorded for `QVQLVESGGGLVQAGGSLRLSCDASGITFGYYAMGWYRQAPGKERELVAAISNSGRTYYADSVKGRFTISRDNAKNSVYLQMNSLKPEDTAVYYCAADDAYYDFYFWGQGTQVTVSS` ? low polyreactivity

May I ask what polyreactivity (PSR sort gate) has been recorded for `QVQLVESGGGLVQAGGSLRLSCAASGFTFYTNAMGWYRPAPGKEREFVAAISFSGGTYYADSVKGRFTISRDNAKNTVYLQMNSLKPEDTAVYYCNARYPRYYRGVIQYDYWGQGTQVTVSS` ? low polyreactivity

May I ask what polyreactivity (PSR sort gate) has been recorded for `QVQLVESGGGLVQAGGSLRLSCAASGFIFGQYAMGWYRQAPGKERELVAAISWSGGRTNYADSVKGRYTISRDNAKNTVYLQMNSLKPEDTAVYYCAARKGKYPQYTYGYWGQGTQVTVSS` ? high polyreactivity

May I ask what polyreactivity (PSR sort gate) has been recorded for `QVQLGESGGGLVQAGGSLRLSCAASGTIYGYVMGWYRQAPGKERVLVAAISSSGGSTYYADSVKGRFTISRDNAKNTVYLQMNSLKPEDTAVYYCAKGLTYARRYGYWGQRTQVTVSS` ? high polyreactivity

###

# experiment_notes: yeast display, Sf9 membrane polyspecificity reagent, FACS + sequencing; frameworks hold sequencing errors
readout_name: polyreactivity (PSR sort gate)

{"columns": ["sequence_text", "readout_name", "observed_value"],
 "data": [
  ["QVQLVESGGCLVQAGGSLRLSCASSGSTFSPNDMGWYRQAPGKESELVADISNYADSVKGRFTISRDNAKNTVYLQMNSLKPEDTAVYYCAAEWRGDRYRLYVVSWWYDYWGQGTQVTVSS", "polyreactivity (PSR sort gate)", "low polyreactivity"],
  ["QVQLVESGGGLVQAGGSLRLSCAASGSIFESYAMGWYRQAPGKERELVAAITSSGDSTYYADSVKGRFTISRDNAKNTVYLQMNSLKPEDTAVDYCAKRVPTYISTADWGSRYDYWGQGTQVTVSS", "polyreactivity (PSR sort gate)", "low polyreactivity"],
  ["QVQLVESGGGLVQAGGSLRLSCAASGSTFVFYAMGWYRQAPGKERELVADITSGGRTSYADSVKGRFTISRDNAKNTVYLQLNSLKPEDTAVYYSAALTRWYAWYDYWGQGTQVTVSS", "polyreactivity (PSR sort gate)", "high polyreactivity"],
  ["QVQLVESGGGLVQAGGSLRLSFAASGRIFLYNTMGWYRQAPGKERELVARISWSGGSTKYADSVKGRFTISRDNAKNTVYLQMNSLKPEDTAVYYCNAGYFTEYNSWGQGTQVTVSS", "polyreactivity (PSR sort gate)", "high polyreactivity"],
  ["QVQLVESGGGLVQAGGSLRLSCAASGRIFYPYAMGWYRQAPGKERELVAAISFRDGSTYYADSVKGRFTISRDNAKYTVYLQLNILKPEDTAVYYCAAVGQTHPTSPLYTKYDYWGQGTQVTVSS", "polyreactivity (PSR sort gate)", "low polyreactivity"],
  ["QGQLVESGGGLVQAGGSLRLSCAASGIILSAYALGWYRQAPGNERELVAAITRRGGRTYYADSVKGRFTISRDNAKNTVYLQMNSLKPEDTAVYYCATVQSGRVRTYDYWGQGTQVTVSS", "polyreactivity (PSR sort gate)", "high polyreactivity"],
  ["QVQLVESGGGLVQAGGSLRLSCAASGSIFVYNAMGWYRQAPGKERELVAAITTGGSTNYADSVKGRFTISRDNAKNTVYLQMNSLKPEDTAVYDCNAVHEASYAGVDYWGQGTQVTVSS", "polyreactivity (PSR sort gate)", "low polyreactivity"],
  ["QVQLVESGGGLVQAGGSLRLSCAASGLIFRHYTMGWYRQAPGKERELVAAISRSGGSTRYADSVKGRFTISRDNAKNTVYLQMNSLKPEDTAVYYCAASSVKSTWTLDYWGQGTQVTVSS", "polyreactivity (PSR sort gate)", "high polyreactivity"]
]}

May I ask what polyreactivity (PSR sort gate) has been recorded for `QVQLVESGGGLVQAGGSLRLSCAASGLIIPFYAMGWYRQAPGKERELVAAISWSAGSTYYADSVKGRFTISRDNAKNTVYLQMNSLKPEDTADYYCATERNPADFYWGQGTQVTVSS` ? low polyreactivity

May I ask what polyreactivity (PSR sort gate) has been recorded for `QVQLVESGGGLVQAGGSLRLSCAASGMTFHRYAMGWYRQTPGKERELVAAINYSGGRTYYADSVKGRFTISRDNAKNTVYLQMNSLKPEDTAVYYCAAPRASGYYWGQGTQVTVSS` ? high polyreactivity
